# Assay: yeast display, Sf9 membrane polyspecificity reagent, FACS + sequencing; frameworks hold sequencing errors

{"columns": ["Chain sequence", "polyreactivity (PSR sort gate)"],
 "data": [
  ["QVQLVESGGGLVQAGGSLRLSCAASGSIFVLYTIGWYRQAPGKERELVGAISYSGGSTNYADSVKGRFTISRDNAKNTVYLQMNSLKPEDTSVYYCADRASKGHKYWGQGTQVTVSS", "high polyreactivity"],
  ["QVQLGESGRGLVPAGGSLRLSCASSGSIFDRNARGWYRQAPGKERELVAAISSRGGSTYYADSVKGRFTISRDNAKNTVYLQMNSLKPEDTAVYYCNKVRTYGYDYWGQGTQVTVSS", "high polyreactivity"],
  ["QVQLVESGGGLVQAGGSLRLSCAASGYTIRGYVMGWYRQAPGKERELVAAISASGGRTYYADSVKGRFTISRDYATNTVYLLMNSLKPEDTAVYYCAADSSRTPLEFDYWGQGTQVTVSS", "high polyreactivity"],
  ["QVQLVESGGRLVQAGGSLRLSCAASGSTFHDYAMGWYTPAPGKERELVAAIYNSGGSTYYADSVKGRFSISLDNAQNTVYLQMNRLKPEDSAVYYWAADVSWYWYYEYWGQGTQVTLSS", "low polyreactivity"],
  ["QVQLVESGRALVQAGGSLRLSCASSVRIFVRNAMGWYRQAPGKESELVAAISARGGRTNYADSVKGRFTISRDNAKNTVYLQMNSLKPDDTAVYYCAAVGFRAAYLYDYWGQGTQVTVSS", "high polyreactivity"],
  ["QVQLVESGGGLVQAGGSLRLSCAASGLTFAGYAMGWYRQAPGKERELVAAISSGGRTNYADSVKGRFTISRDNAKNTVYLHMNSLKPADTAVYYCAARISTHAPHRRLTYEYWGQGTQVTVSS", "low polyreactivity"],
  ["QVQLVESGGGLVQAGGSLRLSCAASGRIFGANAMGWYRQAPGKERELVAAISRTGGSTYYADSVKGRFTISRDNAKNTVYLQMNSLKPEDTAVYYCNAVYRYAHPMEYWGQGTQVTVSS", "high polyreactivity"],
  ["QVQLVESGGGLVQAGGSLRLSCAASGRIFGYYAMGWYRQAPGKERELVAAISYRGSSTYYADSVKGRFTISRDNAKNTVYLQMNSLKPEDTAVYYCAAKGHGRTYDYWGQGTQVTVSS", "high polyreactivity"],
  ["QVQLVESGGGLVQAGGSLRLSCAASGITFLTYTMGWYRQAPGKERELVAAISRSGGRTYYADSVKGRFTISRDNAKNTVYLQMNSLKPEDTAVYYCAAVSANQDFDYWGQGTQVTVSS", "high polyreactivity"],
  ["QVQLVESWGGLVEAGGSLRLSCAASGRTFRSYAMVWYRQAPWKERELVAAISDGGSTNYADSVKGRFTISRDNAKNTVYLQMNSLKPEDTAVYYCAAVIFFAVFRFYYWGQGTQVTVSS", "low polyreactivity"],
  ["QVQLVESGGGLVQAGGSLRLSSAASGFNSSRNAMGWYRQAPGKERELVATISSGGDTYYADSVKGRFTISRDNAKNTVYLQMNSLKPEDTAVYYCATDRAERTGYTRYVKTYNYWGQGTQVTVSS", "low polyreactivity"],
  ["QVQLVESGGGLVQAGGSLRLSCAASGFIFPWYAMGGYRQAPRKERELVAAITSGGTTYYADSVKGRFTISRDNAKNTVYLQMNSLKPEDTAVYYCAAQYYFYPHEFDYWGQGTQVTVSS", "low polyreactivity"]
]}

Numbers sourced from the nanobody polyreactivity screen of Harvey et al. (2022).
